- TGT: 5-HT1A receptor
- Sequence (F6Q2H9 1-422): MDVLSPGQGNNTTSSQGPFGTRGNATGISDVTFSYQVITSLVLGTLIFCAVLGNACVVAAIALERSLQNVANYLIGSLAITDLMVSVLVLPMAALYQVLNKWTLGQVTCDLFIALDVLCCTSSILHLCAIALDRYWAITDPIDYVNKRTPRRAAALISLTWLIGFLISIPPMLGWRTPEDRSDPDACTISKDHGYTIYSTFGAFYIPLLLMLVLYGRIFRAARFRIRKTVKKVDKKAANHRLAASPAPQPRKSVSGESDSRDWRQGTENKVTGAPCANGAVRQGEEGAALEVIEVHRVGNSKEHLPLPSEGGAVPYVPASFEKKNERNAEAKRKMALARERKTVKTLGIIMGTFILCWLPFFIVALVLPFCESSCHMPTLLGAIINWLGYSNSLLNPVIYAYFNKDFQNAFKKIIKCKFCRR
- EXPERIMENT_SUMMARY: In vitro binding to the 5-HT1A receptor (method of Peroutka, Brain Research 344, 167 (1985), minor modifications)
- DETAILS: in vitro binding to 5-HT1A receptor; class symbols
OBSERVABLE: IC50

Completed entries (count: 5):
COMPOUND: COC1(c2ccc3c(c2)OCO3)CCC(NCC2COc3ccccc3O2)CC1 (racemic) [Example 10]
TGT: 5-HT1A receptor
IC50: 5 to 25 nM

COMPOUND: COC1(c2ccc3c(c2)OCO3)CCC(N(C)CC2COc3ccccc3O2)CC1 (mixture of isomers) [Example 8]
TGT: 5-HT1A receptor
IC50: 5 to 25 nM

COMPOUND: OC1(c2ccc(F)c(F)c2)CCC(NCC2COc3ccccc3O2)CC1 (racemic) [Example 13]
TGT: 5-HT1A receptor
IC50: < 1 nM

COMPOUND: COC1(c2ccc3c(c2)OCO3)CCC(NCC2COc3ccccc3O2)CC1 (racemic) [Example 6]
TGT: 5-HT1A receptor
IC50: 1 to 5 nM

COMPOUND: CCOC1(c2ccc3c(c2)OCO3)CCC(NCC2COc3ccccc3O2)CC1 (racemic) [Example 5]
TGT: 5-HT1A receptor
IC50: 1 to 5 nM

Enquiry: Provide one value: measured IC50 of COC1(c2ccc3c(c2)OCCO3)CCC(NCC2COc3ccccc3O2)CC1 (racemic) [Example 4]
Return: 1 to 5 nM

Enquiry: Provide one value: measured IC50 of OC1(c2ccc3c(c2)OCO3)CCC(NCC2COc3ccccc3O2)CC1 (centres unmarked) [Example 1]
Return: < 1 nM

Enquiry: Provide one value: measured IC50 of OC1(c2ccc3c(c2)OCO3)CCC(NCC2CCc3ccccc3O2)CC1 (racemic) [Example 11]
Return: < 1 nM

* * *

- TGT: 5-HT1A receptor
- EXPERIMENT_SUMMARY: In vitro binding to the 5-HT1A receptor (method of Peroutka, Brain Research 344, 167 (1985), minor modifications)
- DETAILS: in vitro binding to 5-HT1A receptor; class symbols
OBSERVABLE: IC50

Completed entries (count: 3):
COMPOUND: COC1(c2ccc3c(c2)OCO3)CCC(NCC2COc3ccccc3O2)CC1 (single isomer, unassigned; (-)) [Example 9]
ENDPOINT_VALUE: < 1 nM
--
COMPOUND: C1=C(c2ccc3c(c2)OCO3)CCC(NC[C@H]2COc3ccccc3O2)C1 (stereo partly shown)
ENDPOINT_VALUE: 5 to 25 nM
--
COMPOUND: COC1(c2ccc3c(c2)OCO3)CCC(NCC2COc3ccccc3O2)CC1 (stereo not shown) [Example 2]
ENDPOINT_VALUE: < 1 nM

Here is another compound to look at.
Enquiry: Provide one value: measured IC50 of CCN(CC1COc2ccccc2O1)C1CCC(O)(c2ccc3c(c2)OCO3)CC1 (mixture of isomers)
Return: 5 to 25 nM
